Reference source for all entries: ChEMBL document CHEMBL1145971

Record form. Attribute: IC50. Fill in for each entry.
# Target entity: Neuropeptide Y receptor type 5 (Homo sapiens, UniProt Q15761)
# Sequence (Q15761 whole entry): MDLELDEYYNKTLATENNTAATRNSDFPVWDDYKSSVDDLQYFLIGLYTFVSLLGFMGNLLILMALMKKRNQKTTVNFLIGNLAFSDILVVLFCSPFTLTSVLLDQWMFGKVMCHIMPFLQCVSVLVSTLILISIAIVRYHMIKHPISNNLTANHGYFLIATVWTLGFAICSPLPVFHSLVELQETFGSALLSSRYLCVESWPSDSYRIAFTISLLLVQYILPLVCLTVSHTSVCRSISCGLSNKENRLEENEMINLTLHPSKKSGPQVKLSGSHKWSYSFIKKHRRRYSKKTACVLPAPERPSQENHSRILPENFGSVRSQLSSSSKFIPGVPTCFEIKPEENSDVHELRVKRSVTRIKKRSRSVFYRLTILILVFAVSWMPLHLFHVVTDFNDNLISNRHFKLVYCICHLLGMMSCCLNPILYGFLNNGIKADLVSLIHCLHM
# Experiment description: Antagonistic activity of compound was determined by its ability to inhibit NPY induced [Ca2+]i increases in CHO cells which expressed the recombinant human Neuropeptide Y receptor type 5
# Assay type: functional, cell-based
Field: numeric (nM). Do not append units.

Req: For CCc1cc(-c2cc(NC(=O)C3Cc4ccc5ccccc5c4C3)[nH]n2)ccn1 (stereo in doubt; (-)-7) , what is its reported IC50?
Resp: 14

Req: Moving on to the next compound: CCc1cc(-c2cc(NC(=O)C3Cc4ccc5ccccc5c4C3)[nH]n2)ccn1 (stereo in doubt; (+)-7)
Resp: 28
